Reference for the values: the supplement of paper PMC6555819

- Tested on: PPARg:RXRa 30nM:10nM, anti-RXR (NR concentration 30 nM, RXRa partner concentration 10 nM)
- PROTOCOL DESCRIPTION: PBM binding z-score (relative to random genomic background probes); higher = stronger binding; sequences stand for … in GC…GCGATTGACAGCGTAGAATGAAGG

{"columns": ["SEQUENCE CHAIN", "MEASUREMENT TARGET", "PBM binding z-score"],
 "data": [
  ["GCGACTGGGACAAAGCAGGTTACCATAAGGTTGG", "PPARg:RXRa 30nM:10nM, anti-RXR (NR concentration 30 nM, RXRa partner concentration 10 nM)", -0.332],
  ["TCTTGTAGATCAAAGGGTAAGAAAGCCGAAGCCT", "PPARg:RXRa 30nM:10nM, anti-RXR (NR concentration 30 nM, RXRa partner concentration 10 nM)", 5.35],
  ["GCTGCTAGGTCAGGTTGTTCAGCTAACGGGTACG", "PPARg:RXRa 30nM:10nM, anti-RXR (NR concentration 30 nM, RXRa partner concentration 10 nM)", -0.403],
  ["ATCGAAAGGTCGTGAGGTGAGTATGCAGAAAGGC", "PPARg:RXRa 30nM:10nM, anti-RXR (NR concentration 30 nM, RXRa partner concentration 10 nM)", 1.24],
  ["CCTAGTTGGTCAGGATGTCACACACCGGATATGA", "PPARg:RXRa 30nM:10nM, anti-RXR (NR concentration 30 nM, RXRa partner concentration 10 nM)", -0.14],
  ["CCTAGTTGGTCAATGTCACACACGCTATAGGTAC", "PPARg:RXRa 30nM:10nM, anti-RXR (NR concentration 30 nM, RXRa partner concentration 10 nM)", 0.448]
]}
